Data provenance is patent US20170037110A1.

For each record, write down the corresponding peptide exchange yield.
# testedOn: T1, HLA-A*02:01 (human)
# T1 construct: monomers captured on streptavidin plates; also called MHC class I
# assayComment: UV peptide exchange ELISA

Prompt: What value of measured peptide exchange yield is listed for FLSQVDFEL ?
Completion: 50 to 75%

Prompt: And the next one, ALLELENSVTL ?
Completion: 50 to 75%

Prompt: And the next one, GAAKDLPGV ?
Completion: 20 to 50%

Prompt: And the next one, VLSSLEINI ?
Completion: 20 to 50%

Prompt: And the next one, VLLQKIVSA ?
Completion: 50 to 75%

Prompt: And the next one, VLPPDTDPA ?
Completion: 20 to 50%

Prompt: And the next one, KIGDEPPKV ?
Completion: 20 to 50%

Prompt: And the next one, SIANFSEFYV ?
Completion: ≥ 75%

Prompt: And the next one, VMNDRLYAI ?
Completion: 50 to 75%

Prompt: And the next one, ILLEHGADPNL ?
Completion: 50 to 75%

Prompt: And the next one, ILIDSIYKV ?
Completion: 50 to 75%

Prompt: And the next one, YLLPSGGSVTL ?
Completion: 20 to 50%

Prompt: And the next one, SLINGSFLV ?
Completion: 50 to 75%

Prompt: And the next one, ILLERLWYV ?
Completion: 50 to 75%

Prompt: And the next one, ALLENIALYL ?
Completion: 50 to 75%

Prompt: And the next one, ILLTAIVQV ?
Completion: 50 to 75%
